In this section we review reported TGI values for a set of molecules.
System: SF-268 CNS
assayComment: NCI tumour cell line growth inhibition, 48 h

Some solved entries appear below for comparison.
1) CCCCCC/C=C\CCCCCCCCCC1=C(CN2CCN(C)CC2)C(=O)C=C(OC)C1=O : 19.7 µM
2) CCC(C)[C@@H](Nc1c(O)c2c(c(O)c1Cl)C(=O)C=CC2=O)C(=O)OC (stereo not given in full) : > 10 µM
3) O=C(/C=C\c1cccc2ccccc12)c1ccc(Cl)cc1Cl : 51.9 µM

Name the recorded TGI for C=C(C(=O)OC)[C@@H]1C[C@@H](OC(C)=O)C2=C[C@H](C[C@@]3(C)O[C@@H]3C3=CC(C)=C(O3)[C@H]1OC(C)=O)OC2=O . > 100 µM

Name the recorded TGI for CC(Nc1ccc(Cl)c(Cl)c1)c1ccncc1 (stereo not given) . > 100 µM

Name the recorded TGI for CC(=O)[CH-]C(=O)c1ccccc1.CC(=O)[CH-]C(=O)c1ccccc1.CC(=O)[CH-]C(=O)c1ccccc1.[Nd+3].[OH3+] . > 100 µM

Name the recorded TGI for COc1ccc2c(c1)CCCN1CCc3ccccc3C21 (stereo not given) . > 100 µM

Name the recorded TGI for c1ccc(CNCCN(CCNCc2ccccn2)Cc2ccc3ccccc3c2)nc1 . 12.3 µM

Name the recorded TGI for CC1CCC2CC(=O)OC([C@@H]3C(=O)O[C@@H](C4=CCCC4)C4C(C)CCC43)C12 (stereo not given in full) . > 100 µM

Name the recorded TGI for O=C1O[C@H]2[C@H](OC(=O)c3cc(O)c(O)c(O)c3)[C@@H](OC(=O)c3cc(O)c(O)c4c3[C@@H]3C1=CC(=O)C(O)(O)C3(O)O4)[C@H](OC(=O)c1cc(O)c(O)c(O)c1)O[C@@H]2COC(=O)c1cc(O)c(O)c(O)c1 (stereo not given in full) . > 100 µM

Name the recorded TGI for C/C(=C(\c1ccc(OCCN2CCCCCC2)cc1)c1ccc(OC(=O)c2ccccc2)cc1)c1ccc(Cl)cc1 . 9.7 µM

Name the recorded TGI for Cc1cc(Nc2nc(N[C@@H](C)c3ncc(F)cn3)ncc2Cl)n[nH]1 . > 82.4 µM

Name the recorded TGI for O=C1C2C3CC(C4C5C=CC(C5)C34)C2C2C3CC(C12)C1C2C=CC(C2)C31 (stereo not given) . > 100 µM

Name the recorded TGI for C=CC1CN(C(=O)OCC)N(C(=O)OCC)C1CCc1ccccc1 (stereo not given) . > 100 µM

Name the recorded TGI for COc1cc(OC)cc(-c2cc(=O)c3cc4c(cc3[nH]2)OCO4)c1 . 38.6 µM

Name the recorded TGI for CC(C)=CCC[C@@H](C)C1=C(O)C(Nc2ccccc2Cl)=C(C)C(=O)C1=O . > 75 µM

Name the recorded TGI for O=C(/C=C/c1ccccc1)Nc1ccccc1SCCCCl . > 100 µM

Name the recorded TGI for CCOC(=O)c1nc2ccc(C(F)(F)F)cc2nc1NCc1ccc(OC)c(OC)c1 . > 100 µM

Name the recorded TGI for CCOC(=O)c1nc2cc(C(F)(F)F)ccc2nc1Nc1ccc(C(=O)OC)s1 . > 100 µM
